# Tested on: KB-3-1
# Protocol notes: Cytotoxic Profiling of Annotated Libraries Using Quantitative High-Throughput Screening (AID 1296008); note: nearly all actives have a fitted effect of over 60% in size
# Condition details: Five cell lines viability, CellTiter-Glo ATP luminescence, 48-72 h
Inconclusive results are not listed. Calls of active or inactive are those of the source. Calls come from the whole dose curve; as a rule, active = well fitted inhibition curve with a large enough effect; inconclusive = small, poorly fitted or top-dose-only effect; inactive = flat fitted curve, though single readings scatter.
Form entry, call: pick from T = active, F = inactive

Dear colleague, could you share the recorded outcome for `Cc1c(C(=O)Nc2ccc(N3CCC(N4CCOCC4)CC3)c(C#N)c2)cnn1-c1ccc(Cl)cc1` when you have a moment?
T

Dear colleague, could you share the recorded outcome for CC(C)(F)CC(NC(c1ccc(-c2ccc(S(C)(=O)=O)cc2)cc1)C(F)(F)F)C(=O)NC1(C#N)CC1 (stereo not given) when you have a moment?
F

Dear colleague, could you share the recorded outcome for `CC1(C)CN(C(=O)c2ccc(-c3cccc4nc(NC(=O)C5CC5)nn34)cc2)C1` when you have a moment?
F

Dear colleague, could you share the recorded outcome for CCC(C)C1NC(=O)C(Cc2ccccc2)NC(=O)C(CCCCCC(=O)C(O)CO)NC(=O)C2CCCCN2C1=O (stereo not given) when you have a moment?
F

Dear colleague, could you share the recorded outcome for CO[C@H]1O[C@@H]2O[C@@]3(C)CCC4[C@H](C)CCC([C@H]1C)[C@]42OO3 (stereo not given in full) when you have a moment?
F

---

# System: CRL-7250
# Protocol notes: Cytotoxic Profiling of Annotated Libraries Using Quantitative High-Throughput Screening (AID 1296008); note: nearly all actives have a fitted effect of over 60% in size
# Condition details: Five cell lines viability, CellTiter-Glo ATP luminescence, 48-72 h
Results filed as inconclusive are left out. Active and inactive are the calls of the source. Calls follow the shape of the dose curve; as a rule, active = well fitted inhibition curve with a large enough effect; inconclusive = small, poorly fitted or top-dose-only effect; inactive = flat fitted curve, though single readings scatter.
Form entry, call: pick from active, inactive

Dear colleague, could you share the recorded outcome for `Cc1cc(-c2ncc(-c3cccnc3)cc2/C=C/c2ccccc2)cnc1-c1cccnc1` when you have a moment?
inactive

Dear colleague, could you share the recorded outcome for `C=C1C(=O)O[C@H]2C3=C(C)CCC[C@]3(C)C(=O)C[C@@H]12` when you have a moment?
active

Dear colleague, could you share the recorded outcome for CC(=O)Nc1nc(C)c(-c2nc(N3CCCC(O)C3)no2)s1 (stereo not given) when you have a moment?
active

Dear colleague, could you share the recorded outcome for `CCn1c2ccccc2c2cc(Nc3ccnc(NCCCN4CCOCC4)n3)ccc21` when you have a moment?
active

Dear colleague, could you share the recorded outcome for `O=C(NCCCc1ccccc1)c1cccc(-c2cc(O)c3ncccc3c2)c1` when you have a moment?
active

Dear colleague, could you share the recorded outcome for `CC(C)NCCCn1c(Sc2cc3c(cc2I)OCO3)nc2c(N)ncnc21` when you have a moment?
active

Dear colleague, could you share the recorded outcome for `CC(C)(C)c1ccc(C(=O)Nc2cn3cc(-n4ccnc4)ccc3n2)cc1` when you have a moment?
inactive

Dear colleague, could you share the recorded outcome for CC(C)C[C@@H]1NC(=O)[C@@H](Cc2ccccc2)NC(=O)C(CCCCCC(=O)C2CO2)NC(=O)[C@@H]2CCCCN2C1=O (stereo not given in full) when you have a moment?
active

Dear colleague, could you share the recorded outcome for `CC(C)=C[C@@H]1[C@H](CO[C@@H]2O[C@H](CO)[C@@H](O)[C@H](O)[C@H]2O)C1(C)C` when you have a moment?
inactive

Dear colleague, could you share the recorded outcome for `Cn1cc(-c2ccc3c(c2)CCN3C(=O)Cc2cccc(C(F)(F)F)c2)c2c(N)ncnc21` when you have a moment?
active

Dear colleague, could you share the recorded outcome for C=C(C)C1CC(O)C(C)C12CC(O)C1(C)OC1C2O (stereo not given) when you have a moment?
active

Dear colleague, could you share the recorded outcome for `O=C(NCc1nc2ccccc2c(=O)n1-c1ccc(F)cc1)Nc1ccc(Cl)c(C(F)(F)F)c1` when you have a moment?
inactive

Dear colleague, could you share the recorded outcome for `NS(=O)(=O)c1ccc(NC(=O)Nc2ccc(F)cc2)cc1` when you have a moment?
inactive

Dear colleague, could you share the recorded outcome for `CCCSc1nc(N[C@@H]2C[C@H]2c2ccc(F)c(F)c2)c2nnn([C@@H]3C[C@H](OCCO)[C@@H](O)[C@H]3O)c2n1` when you have a moment?
inactive

Dear colleague, could you share the recorded outcome for `CC(C)n1cnc2c(-c3cnc(N)nc3)nc(N3CCOCC3)nc21` when you have a moment?
active

Dear colleague, could you share the recorded outcome for CC1(C=O)CCCC2(C)C1CCC13CC(CO)C(CCC12)C3 (stereo not given) when you have a moment?
inactive

Dear colleague, could you share the recorded outcome for COC(=O)CC1OC(C)C2=C(O)c3c(O)cccc3C(=O)C23OC13 (stereo not given) when you have a moment?
active

Dear colleague, could you share the recorded outcome for CCC/C=C/C(=O)O[C@H]1CC(C)(C)CC2[C@@]13[C@H](O)C[C@]1(C)[C@@]2(CCC2[C@@]4(C)CC[C@H](O[C@@H]5O[C@H](C(=O)O)[C@@H](O)[C@H](O[C@@H]6O[C@H](CO)[C@H](O)[C@H](O)[C@H]6O[C@@H]6O[C@@H](C)[C@H](O)[C@@H](O)[C@H]6O[C@@H]6OC[C@](O)(CO)[C@H]6O)[C@H]5O[C@@H]5O[C@H](CO)[C@H](O)[C@H](O)[C@H]5O)C(C)(C)C4CC[C@]21C)O[C@H]3O (stereo not given in full) when you have a moment?
inactive

Dear colleague, could you share the recorded outcome for O=C1C(Cc2ccc(O)cc2)N2C(=O)CCN(C(=O)NCc3ccccc3)C2CN1Cc1cccc2ccccc12 (stereo not given) when you have a moment?
active

Dear colleague, could you share the recorded outcome for `O=S(=O)(c1ccccc1)N(CC(F)(F)F)c1ccc(C(O)(C(F)(F)F)C(F)(F)F)cc1` when you have a moment?
inactive

---

# Test system: HEK293
# Protocol notes: Cytotoxic Profiling of Annotated Libraries Using Quantitative High-Throughput Screening (AID 1296008); note: nearly all actives have a fitted effect of over 60% in size; note: potency is the fitted concentration of half-maximal effect
# Condition details: Five cell lines viability, CellTiter-Glo ATP luminescence, 48-72 h
Results filed as inconclusive are left out. The source made the active and inactive calls. The call rests on the fitted dose curve; in most records, active means well fitted inhibition curve with a large enough effect; inconclusive means small, poorly fitted or top-dose-only effect; inactive means flat fitted curve, though single readings scatter.
Value type: Potency

I have this compound here, `COc1ccc(CN2CCN(C(=O)CCNC(=O)c3ccc(C(C)(C)C)cc3)CC2)cc1` , and I need its recorded Potency.
7.31 µM (active)

I have this compound here, C=C1CC2[C@@]3(C)C=CC(=O)C(C)(C)C3=C(O)C(=O)[C@@]2(C)C2(C(=O)OC)C(=O)C(C)OC(=O)[C@@]12C (stereo partly drawn) , and I need its recorded Potency.
7.96 µM (active)

I have this compound here, CC[C@@H](C)Nc1cc(C(=O)NC2CC3CC[C@@H](C2)N3c2ccc(C(=O)C3CC3)cn2)c(C)cc1C(N)=O (stereo partly drawn) , and I need its recorded Potency.
0.0517 µM (active)

I have this compound here, `O=c1cc(NCCCN[C@@H]2CCOc3c(Br)cc(Br)cc32)[nH]c2ccsc12` , and I need its recorded Potency.
5.8 µM (active)

I have this compound here, `CC#CC(=O)Nc1ccc2ncnc(Nc3cccc(Br)c3)c2c1` , and I need its recorded Potency.
3.66 µM (active)

I have this compound here, `Cn1cc(-c2cnn3c(N)c(Br)c([C@@H]4CCCNC4)nc23)cn1` , and I need its recorded Potency.
1.16 µM (active)

I have this compound here, `O=C(NC1(c2ccccc2)CC1)c1c(CN2CCC(N3CCCCC3)CC2)c(-c2cccc(C(F)(F)F)c2)nc2cc(Br)ccc12` , and I need its recorded Potency.
14.6 µM (active)

I have this compound here, `Cc1sc2c(c1C)C(c1ccc(Cl)cc1)=N[C@H](CC(=O)NCCCCNC(=O)COc1cccc3c1C(=O)N([C@H]1CCC(=O)NC1=O)C3=O)c1nnc(C)n1-2` , and I need its recorded Potency.
2.59 µM (active)

---

# Test system: SKOV3
# Protocol notes: Primary qHTS to identify gynecologic anti-cancer compounds using libraries of approved drugs and bioactive compounds (AID 1345084); note: % is set by controls: 0 for no effect and ±100 for the full control effect; nearly all actives have a fitted effect of over 55% in size
# Condition details: Gynecologic cancer cell panel viability, ATPlite luminescence, 48 h; series mostly up to 57.5 µM
Records with an inconclusive call do not appear. Calls of active or inactive are those of the source. Calls come from the whole dose curve; as a rule, active = well fitted cell-killing curve with a large enough effect; inconclusive = small, poorly fitted or top-dose-only effect, or effect the other way; inactive = flat fitted curve, though single readings scatter.
Value type: activity change, negative = cytotoxicity

I have this compound here, CCC(C)(OC(C)=O)C(=O)O[C@H]1[C@H](OC(C)=O)[C@]2(CO)[C@H](O)[C@H](O)[C@]3(C)C(=CCC4[C@@]5(C)CC[C@H](O[C@@H]6O[C@H](C(=O)O)[C@@H](O)[C@H](O[C@@H]7OC[C@H](O)[C@H](O[C@@H]8OC[C@H](O)[C@H](O)[C@H]8O)[C@H]7O)[C@H]6O[C@@H]6O[C@H](CO)[C@@H](O)[C@H](O)[C@H]6O)C(C)(C)C5CC[C@]43C)[C@@H]2CC1(C)C (some centres undefined) , and I need its recorded activity change, negative = cytotoxicity.
-31.7% [at 6.55 µM] (inactive)

I have this compound here, `N#CSc1cc(SC#N)c(N)nc1N` , and I need its recorded activity change, negative = cytotoxicity.
-0.394% [at 11.6 µM] (inactive)

I have this compound here, `COc1ccc(CN2CCN(CCCSc3cc(C(C)(C)C)c(O)c(C(C)(C)C)c3)CC2)c(OC)c1OC` , and I need its recorded activity change, negative = cytotoxicity.
17.3% [at 11.6 µM] (inactive)

I have this compound here, C=CC(C)(O)CC/C=C(\C)C(=O)OC1C(O)C(CO)OC(OC(=O)C23CCC(C)(C)CC2C2=CCC4C5(C)CCC(OC6OC(COC7OCC(OC(C)=O)C(O)C7OC7OC(COC(C)=O)C(O)C(O)C7OC(C)=O)C(O)C(O)C6OC6OCC(O)C(O)C6O)C(C)(C)C5CCC4(C)C2(C)C(O)C3O)C1OC1OCC(OC2OCC(O)C(OC3OCC(O)C(O)C3O)C2O)C(O)C1O (centres undefined) , and I need its recorded activity change, negative = cytotoxicity.
0.6% [at 6.55 µM] (inactive)
